The values you see were collected from ChEMBL document CHEMBL4152300.

- tgt: CDK6/cyclin D1 (Homo sapiens)
- Sequence (P24385 whole entry, one chain of several): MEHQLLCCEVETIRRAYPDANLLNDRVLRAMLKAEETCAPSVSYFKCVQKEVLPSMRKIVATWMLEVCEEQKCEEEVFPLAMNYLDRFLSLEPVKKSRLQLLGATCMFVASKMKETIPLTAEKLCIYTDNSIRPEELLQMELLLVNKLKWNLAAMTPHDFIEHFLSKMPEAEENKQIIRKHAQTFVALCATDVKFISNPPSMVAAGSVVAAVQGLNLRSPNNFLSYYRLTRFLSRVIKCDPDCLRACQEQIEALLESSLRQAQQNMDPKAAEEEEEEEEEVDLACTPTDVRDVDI
- assay summary: Inhibition of human CDK6/Cyclin-D1 at 0.123 uM by Hotspot assay
reported metric: IC50

Exercise: Which measured IC50 belongs to CN1CCN(Cc2ccc(NC(=O)c3n[nH]cc3Nc3ncnc4sccc34)cc2)CC1 , tested on CDK6/cyclin D1 (Homo sapiens)?
Solution: < 10 nM

* * *

- tgt: Receptor-type tyrosine-protein kinase FLT3 (Homo sapiens, UniProt P36888, D835V/ITD)
- assay summary: Binding affinity to human FLT3 ITD/D835V double mutant expressed in bacterial expression system by Kinomescan method
reported metric: pKd
By convention, pKd is the negative base-10 log of a molar concentration.

Exercise: For the compound shown here, CN1CCN(Cc2ccc(NC(=O)c3n[nH]cc3Nc3ncnc4sccc34)cc2)CC1 , give the reported pKd.
Solution: 9.64

Attention now shifts to the item below.
Exercise: For the compound shown here, Cc1nc2c(c(Nc3c[nH]nc3C(=O)Nc3ccc(N4CCNCC4)cc3)n1)CCC2 , give the reported pKd.
Solution: 8.43

* * *

- tgt: Receptor-type tyrosine-protein kinase FLT3 (Homo sapiens, UniProt P36888, D835Y)
- assay summary: Inhibition of human FLT3 D835Y mutant by Hotspot assay
reported metric: IC50 (nM)
Give the number; nM is assumed, so skip it.

Exercise: For the compound shown here, Cc1nc2c(c(Nc3c[nH]nc3C(=O)Nc3ccc(N4CCNCC4)cc3)n1)CCC2 , give the reported IC50.
Solution: 1.79

Exercise: For the compound shown here, CN1CCN(Cc2ccc(NC(=O)c3n[nH]cc3Nc3ncnc4sccc34)cc2)CC1 , give the reported IC50.
Solution: 0.54

* * *

- tgt: CDK2 (cyclin-dependent kinase 2) (Homo sapiens, UniProt P24941)
- assay summary: Inhibition of CDK2 (unknown origin) at 0.123 uM by Hotspot assay relative to control
- experimental parameters: CDK2 enzyme (unknown origin)
Each entry below lists one item and its recorded inhibition at 0.123 µM value.

# example entries with known answers
Exercise: For the compound shown here, Cc1nc(Nc2c[nH]nc2C(=O)Nc2ccc(N3CCNCC3)cc2)c2ccsc2n1 , give the reported inhibition at 0.123 µM.
Solution: > 80%

Exercise: For the compound shown here, CN1CCN(Cc2ccc(NC(=O)c3n[nH]cc3Nc3ncnc4sccc34)cc2)CC1 , give the reported inhibition at 0.123 µM.
Solution: > 80%

Further cases:
Exercise: For the compound shown here, Cc1nc(Nc2c[nH]nc2C(=O)Nc2ccc(CN3CCOCC3)cc2)c2cc(C(C)C)sc2n1 , give the reported inhibition at 0.123 µM.
Solution: > 80%

Exercise: For the compound shown here, Cc1nc(Nc2c[nH]nc2C(=O)Nc2ccc(CN3CCN(C)CC3)cc2)c2cc(C(C)C)sc2n1 , give the reported inhibition at 0.123 µM.
Solution: > 80%

* * *

- tgt: Cyclin-dependent kinase 6 (Homo sapiens, UniProt Q00534)
- Sequence (Q00534 whole entry): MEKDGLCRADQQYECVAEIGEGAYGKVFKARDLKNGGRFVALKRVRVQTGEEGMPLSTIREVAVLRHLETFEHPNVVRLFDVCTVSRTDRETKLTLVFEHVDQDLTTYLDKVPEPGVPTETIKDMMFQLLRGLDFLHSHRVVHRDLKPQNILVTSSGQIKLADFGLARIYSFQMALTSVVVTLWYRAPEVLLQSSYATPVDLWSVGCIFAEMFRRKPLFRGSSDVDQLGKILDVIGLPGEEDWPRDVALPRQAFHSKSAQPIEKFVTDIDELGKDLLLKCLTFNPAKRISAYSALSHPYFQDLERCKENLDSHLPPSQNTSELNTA
- assay summary: Inhibition of CDK6 (unknown origin) assessed as residual activity at 0.123 uM by Hotspot assay relative to control
Answer False if Activity is under 90%, and True if it is 90% or more.

Completed entries (count: 5):
Exercise: Item CC(C)(C)c1nc(Nc2c[nH]nc2C(=O)Nc2ccc(N3CCNCC3)cc2)c2ccsc2n1 with Activity of 90% or above?
Solution: True

Exercise: Item CC(C)c1nc(Nc2c[nH]nc2C(=O)Nc2ccc(N3CCNCC3)cc2)c2ccsc2n1 with Activity of 90% or above?
Solution: True

Exercise: Item CCc1nc(Nc2c[nH]nc2C(=O)Nc2ccc(N3CCNCC3)cc2)c2ccsc2n1 with Activity of 90% or above?
Solution: False

Exercise: Item O=C(Nc1ccc(N2CCNCC2)cc1)c1n[nH]cc1Nc1nc(Cl)nc2sccc12 with Activity of 90% or above?
Solution: False

Exercise: Item Cc1nc(Nc2c[nH]nc2C(=O)Nc2ccc(N3CCOCC3)cc2)c2ccsc2n1 with Activity of 90% or above?
Solution: False

Further cases:
Exercise: Item Cc1[nH]nc(C(=O)Nc2ccc(CN3CCN(C)CC3)cc2)c1Nc1ncnc2sccc12 with Activity of 90% or above?
Solution: True

Exercise: Item Cc1nc(Nc2c[nH]nc2C(=O)Nc2ccc(CN3CCOCC3)cc2)c2ccsc2n1 with Activity of 90% or above?
Solution: False
